- measurement context: pH 6.8
Classification field: 1 = aqueous solubility at or over 20 µg/mL; -1 = aqueous solubility under 20 µg/mL.

Q. Test whether the compound O=c1c2cc(OCc3ccc(Cl)cc3)ccc2nc2n1CCCCC2 records aqueous solubility of 20 µg/mL or higher.
A. -1

Q. Test whether the compound Nc1ncc(C(=O)NC2CN(C(=O)C3CC3)C2)c2ccc(-c3cccc(F)c3)nc12 records aqueous solubility of 20 µg/mL or higher.
A. -1

Q. Test whether the compound CC(=O)NCc1ncc(-c2ccccc2C(=O)O)cn1 records aqueous solubility of 20 µg/mL or higher.
A. 1

Q. Test whether the compound Cc1nc(O)cc(C2CCN(c3cnccn3)CC2)n1 records aqueous solubility of 20 µg/mL or higher.
A. 1

Q. Test whether the compound Cc1nc(N2CCc3c(ncn3C)C2)c2c(C)c(C)sc2n1 records aqueous solubility of 20 µg/mL or higher.
A. 1

Q. Test whether the compound CCOc1ccccc1N/C=C1\C(=O)Oc2ccccc2C1=O records aqueous solubility of 20 µg/mL or higher.
A. -1

Q. Test whether the compound Cc1ccccc1-c1nc(Cn2ccnc2C(C)C)c(C)o1 records aqueous solubility of 20 µg/mL or higher.
A. 1

Q. Test whether the compound CS(=O)(=O)N(CC(=O)Nc1ccccc1C(=O)NCc1ccco1)c1ccc(F)cc1 records aqueous solubility of 20 µg/mL or higher.
A. 1

Q. Test whether the compound CC(C)c1ccccc1OC(=O)NCCc1ccc2ccccc2c1 records aqueous solubility of 20 µg/mL or higher.
A. -1

Q. Test whether the compound OC1CCN(c2ncc(-c3cnccn3)c(-c3cccs3)n2)CC1 records aqueous solubility of 20 µg/mL or higher.
A. 1

Q. Test whether the compound COCc1nc(C2CCN(CCO)CC2)no1 records aqueous solubility of 20 µg/mL or higher.
A. 1

Q. Test whether the compound O=C(O)CCn1c2ccccc2c2ccccc21 records aqueous solubility of 20 µg/mL or higher.
A. 1

Q. Test whether the compound Cc1nc(N(C)C)nc(C)c1NC(=O)C1CCCCC1 records aqueous solubility of 20 µg/mL or higher.
A. 1

Q. Test whether the compound N#Cc1cc(-c2ccccc2)sc1N records aqueous solubility of 20 µg/mL or higher.
A. -1

Q. Test whether the compound CC(C)N1CCC(O)(c2ccccc2F)CC1 records aqueous solubility of 20 µg/mL or higher.
A. 1

Q. Test whether the compound Cc1cc(Oc2cnccn2)ccc1N records aqueous solubility of 20 µg/mL or higher.
A. 1

Q. Test whether the compound CC(C)C(=O)Nc1ccc2cnn(C(C)C)c2c1 records aqueous solubility of 20 µg/mL or higher.
A. 1

Q. Test whether the compound Cc1nc(-c2ccc(C)c(O)c2)n(C(C)(C)C)n1 records aqueous solubility of 20 µg/mL or higher.
A. -1

Q. Test whether the compound CN1CCC(OC(=O)Nc2ccc(Cl)c(Cl)c2)CC1 records aqueous solubility of 20 µg/mL or higher.
A. 1

Q. Test whether the compound CC1(C)Cc2cc(NC(=O)c3cnn4cccnc34)c(OCC3CC3)nc2O1 records aqueous solubility of 20 µg/mL or higher.
A. -1

Q. Test whether the compound O=C(CCn1cc(Br)cn1)Nc1nc2ccccc2n1CCN1CCOCC1 records aqueous solubility of 20 µg/mL or higher.
A. 1

Q. Test whether the compound COc1ccc(NS(=O)(=O)c2ccc3c(c2)n(C)c(=O)n3C)cc1 records aqueous solubility of 20 µg/mL or higher.
A. -1

Q. Test whether the compound Cc1ccc(-n2cc(C(=O)NCCN(C)C)nn2)cc1C records aqueous solubility of 20 µg/mL or higher.
A. 1

Q. Test whether the compound Cc1ccc(C2(O)CCN(Cc3cn(C)c4ccc(F)cc34)CC2)cc1 records aqueous solubility of 20 µg/mL or higher.
A. 1

Q. Test whether the compound Cc1ccc(Cn2nccc2NC(=O)c2ccncc2)o1 records aqueous solubility of 20 µg/mL or higher.
A. 1

Q. Test whether the compound Cc1ccc(-n2cc[nH]c(=O)c2=O)cc1 records aqueous solubility of 20 µg/mL or higher.
A. 1

Q. Test whether the compound Cc1cc(CN(C)Cc2cscn2)no1 records aqueous solubility of 20 µg/mL or higher.
A. 1

Q. Test whether the compound Cn1ccnc1CN1CCN(Cc2ccc(F)cc2C#N)CC1 records aqueous solubility of 20 µg/mL or higher.
A. 1

Q. Test whether the compound COc1ccc(CNCc2cccc3ccccc23)cc1 records aqueous solubility of 20 µg/mL or higher.
A. 1

Q. Test whether the compound N#Cc1cccnc1NCCc1ccc(F)cc1 records aqueous solubility of 20 µg/mL or higher.
A. -1

Q. Test whether the compound CNC(=O)C1(Cc2ccc(-c3ccncc3)cc2)CCN(Cc2cccc(F)c2)C1 (centres undefined) records aqueous solubility of 20 µg/mL or higher.
A. 1

Q. Test whether the compound N#Cc1cnn(-c2ccc(F)cc2)c1N records aqueous solubility of 20 µg/mL or higher.
A. 1

Q. Test whether the compound CC(C)(C)C(=O)N1CCC(CN2C(=O)C(=O)N(C3CCCC3)C2=O)CC1 records aqueous solubility of 20 µg/mL or higher.
A. 1

Q. Test whether the compound CCN(C/C=C\c1ccc(C2CCCCC2)c(Cl)c1)C1CCCCC1 records aqueous solubility of 20 µg/mL or higher.
A. -1

Q. Test whether the compound COc1ccc(C)cc1-n1ccc(C(=O)NC(C)C)n1 records aqueous solubility of 20 µg/mL or higher.
A. 1

Q. Test whether the compound Cc1c(NC(=O)c2cc(C(N)=O)nc3cc(F)ccc23)c(C(F)(F)F)nn1Cc1ccc(C#N)cc1 records aqueous solubility of 20 µg/mL or higher.
A. -1

Q. Test whether the compound O=C(Cc1c(F)cccc1Cl)Nc1cccc2cnccc12 records aqueous solubility of 20 µg/mL or higher.
A. -1

Q. Test whether the compound O=C(CCCc1nc2ccccc2[nH]1)N1CCCC1 records aqueous solubility of 20 µg/mL or higher.
A. 1

Q. Test whether the compound N[C@H](Cc1c[nH]c2ccccc12)C(=O)N/N=C/c1ccc2nccnc2c1 records aqueous solubility of 20 µg/mL or higher.
A. 1

Q. Test whether the compound CCCc1cc(N2CCc3c(nc(C(C)C)n3C)C2)n2ncnc2n1 records aqueous solubility of 20 µg/mL or higher.
A. 1

Q. Test whether the compound CS(=O)(=O)c1ccc(-c2nnc(/C=C/c3nnc(-c4ccc(C#N)cc4)o3)n2-c2ccccc2Cl)nc1 records aqueous solubility of 20 µg/mL or higher.
A. -1

Q. Test whether the compound O=C(NC1CCCC1)c1cc(C2CC2)nc2ccccc12 records aqueous solubility of 20 µg/mL or higher.
A. -1

Q. Test whether the compound COc1ccccc1CNC(=O)C(C)N1CCCN(c2ccccc2C#N)CC1 (centres undefined) records aqueous solubility of 20 µg/mL or higher.
A. 1

Q. Test whether the compound CCCC(=O)NCC(=O)Nc1cnc(N2CCN(C)CC2)nc1 records aqueous solubility of 20 µg/mL or higher.
A. 1

Q. Test whether the compound O=C(O)c1ccc(N2CCCC2)c(F)c1 records aqueous solubility of 20 µg/mL or higher.
A. 1

Q. Test whether the compound COc1cccc(-n2c(S)nnc2COc2cccc3ccccc23)c1 records aqueous solubility of 20 µg/mL or higher.
A. -1

Q. Test whether the compound N#CC1(C(=O)N2CCN(Cc3ccccn3)CC2)CCCCC1 records aqueous solubility of 20 µg/mL or higher.
A. 1

Q. Test whether the compound COc1ccc(CN2CCC(c3nc(C(C)C)no3)CC2)c(F)c1 records aqueous solubility of 20 µg/mL or higher.
A. 1

Q. Test whether the compound Cc1nn(C)c(C)c1NC(=O)CN1CCN(c2nccs2)CC1 records aqueous solubility of 20 µg/mL or higher.
A. 1
